Reference for the values: paper PMC5564600

remaining activity at 1 µM: recorded values
Molecular target: panel of 442 kinases (Homo sapiens, UniProt Q15208)
Construct: purchased Ambit Biosciences (scanMAXX KINOMEscan)
Sequence (Q15208 whole entry): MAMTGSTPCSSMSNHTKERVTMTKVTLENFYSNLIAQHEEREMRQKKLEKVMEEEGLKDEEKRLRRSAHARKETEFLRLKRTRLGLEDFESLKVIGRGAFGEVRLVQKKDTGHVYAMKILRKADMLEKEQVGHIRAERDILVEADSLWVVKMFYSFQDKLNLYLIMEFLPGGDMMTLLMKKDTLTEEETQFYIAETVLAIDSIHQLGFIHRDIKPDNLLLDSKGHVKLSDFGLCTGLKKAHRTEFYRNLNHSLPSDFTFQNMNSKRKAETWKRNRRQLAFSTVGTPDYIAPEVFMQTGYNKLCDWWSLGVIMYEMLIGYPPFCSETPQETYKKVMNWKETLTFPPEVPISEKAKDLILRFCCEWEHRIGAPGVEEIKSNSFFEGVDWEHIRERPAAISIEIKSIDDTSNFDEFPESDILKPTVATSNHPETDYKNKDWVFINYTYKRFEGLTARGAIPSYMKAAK
Test: biochemical
Assay type: binding
Details: kinase NDR1; 1 µM; read-out: % of control at 1 µM
Please respond with the number in % and leave the unit unwritten.

Examples from the recorded data:
COc1ncc(-c2ccc3nccc(-c4ccnnc4)c3c2)cc1NS(=O)(=O)c1ccc(F)cc1F [Omipalisib]    100
FC(F)c1nc2ccccc2n1-c1nc(N2CCOCC2)nc(N2CCOCC2)n1 [ZSTK474]    95
Nc1cc(C(F)(F)F)c(-c2cc(N3CCOCC3)nc(N3CCOCC3)n2)cn1 [Buparlisib]    100

Lab note: next molecule to report on.
Challenge: Report remaining activity at 1 µM for Cn1c(=O)n(-c2ccc(C(C)(C)C#N)cc2)c2c3cc(-c4cnc5ccccc5c4)ccc3ncc21 [Dactolisib] please.
Response given: 100

* * *

Reported remaining activity at 1 µM values for the following compounds.
Target: panel of 442 kinases (Homo sapiens)
Construct: purchased Ambit Biosciences (scanMAXX KINOMEscan)
Test: biochemical
Type: binding
Settings: kinase RSK3(Kin.Dom.2-C-terminal); 1 µM; read-out: RSK3(Kin.Dom.2-C-terminal) (% of control at 1 µM)

Please review the entries below; each comes with its answer.
Nc1cc(C(F)(F)F)c(-c2cc(N3CCOCC3)nc(N3CCOCC3)n2)cn1    100%
COc1ncc(-c2ccc3nccc(-c4ccnnc4)c3c2)cc1NS(=O)(=O)c1ccc(F)cc1F    100%
Cn1c(=O)n(-c2ccc(C(C)(C)C#N)cc2)c2c3cc(-c4cnc5ccccc5c4)ccc3ncc21    75%

Would you kindly look at the next entry?
Challenge: Look at this compound and give its reported remaining activity at 1 µM. FC(F)c1nc2ccccc2n1-c1nc(N2CCOCC2)nc(N2CCOCC2)n1
Response given: 100%

* * *

Biological target: panel of 442 kinases (Homo sapiens, UniProt P78368)
Construct: purchased Ambit Biosciences (scanMAXX KINOMEscan)
Sequence (P78368 whole entry): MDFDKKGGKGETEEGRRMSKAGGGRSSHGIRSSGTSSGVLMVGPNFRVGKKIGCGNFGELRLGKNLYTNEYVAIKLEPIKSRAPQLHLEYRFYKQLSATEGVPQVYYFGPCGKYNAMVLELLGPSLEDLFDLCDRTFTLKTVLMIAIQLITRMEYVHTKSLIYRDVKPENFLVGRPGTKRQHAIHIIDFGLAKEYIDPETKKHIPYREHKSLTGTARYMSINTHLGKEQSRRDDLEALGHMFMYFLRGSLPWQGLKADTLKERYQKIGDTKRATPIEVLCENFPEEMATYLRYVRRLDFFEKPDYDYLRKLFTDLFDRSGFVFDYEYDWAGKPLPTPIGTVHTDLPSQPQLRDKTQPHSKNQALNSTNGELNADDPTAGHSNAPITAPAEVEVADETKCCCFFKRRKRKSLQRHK
Assay: biochemical
Format: binding
Details: CSNK1G2; 1 µM; read-out: % of control at 1 µM
In this section we review reported remaining activity at 1 µM values for a set of molecules.
Report the value in % with no unit label.

Below, each entry is followed by its recorded remaining activity at 1 µM result.
COc1ncc(-c2ccc3nccc(-c4ccnnc4)c3c2)cc1NS(=O)(=O)c1ccc(F)cc1F [Omipalisib]    100
FC(F)c1nc2ccccc2n1-c1nc(N2CCOCC2)nc(N2CCOCC2)n1 [ZSTK474]    90
Nc1cc(C(F)(F)F)c(-c2cc(N3CCOCC3)nc(N3CCOCC3)n2)cn1 [Buparlisib]    100

Then there is this molecule:
Challenge: Which remaining activity at 1 µM is listed for Cn1c(=O)n(-c2ccc(C(C)(C)C#N)cc2)c2c3cc(-c4cnc5ccccc5c4)ccc3ncc21 [Dactolisib] ?
Response given: 80

* * *

Target: panel of 442 kinases (Homo sapiens, UniProt P36888, K663Q)
Construct: purchased Ambit Biosciences (scanMAXX KINOMEscan)
Assay: biochemical
Assay type: binding
Conditions: FLT3(K663Q); 1 µM; read-out: % of control at 1 µM
assay.endpoint: remaining activity at 1 µM (%)
Kindly answer with a numeric value in %, unit omitted.

Challenge: I would be grateful if you could share the reported remaining activity at 1 µM for Cn1c(=O)n(-c2ccc(C(C)(C)C#N)cc2)c2c3cc(-c4cnc5ccccc5c4)ccc3ncc21 [Dactolisib] .
Response given: 63

Challenge: Name the recorded remaining activity at 1 µM for FC(F)c1nc2ccccc2n1-c1nc(N2CCOCC2)nc(N2CCOCC2)n1 [ZSTK474] .
Response given: 100

Challenge: Look up remaining activity at 1 µM for this compound: Nc1cc(C(F)(F)F)c(-c2cc(N3CCOCC3)nc(N3CCOCC3)n2)cn1 [Buparlisib]
Response given: 95

Challenge: I have this compound here, COc1ncc(-c2ccc3nccc(-c4ccnnc4)c3c2)cc1NS(=O)(=O)c1ccc(F)cc1F [Omipalisib] , and I need its recorded remaining activity at 1 µM.
Response given: 100

* * *

Experiment: Solubility in potassium phosphate buffer
Type: physicochemical
Details: aqueous buffer, thermodynamic from solid, pH 7.4, mean ± SD
assay.endpoint: solubility (µM)
Provide the reading as a plain figure in µM.

Challenge: Report solubility for COc1cccc2c1nc(C(F)F)n2-c1nc(N2CCOCC2)nc(N2CCN(S(=O)(=O)CCN(C)C)CC2)n1 please.
Response given: 11.2

* * *

Target: panel of 442 kinases (Homo sapiens, UniProt P10721, V559D/V654A)
Construct: purchased Ambit Biosciences (scanMAXX KINOMEscan)
Sequence (P10721 26-976 V559D/V654A): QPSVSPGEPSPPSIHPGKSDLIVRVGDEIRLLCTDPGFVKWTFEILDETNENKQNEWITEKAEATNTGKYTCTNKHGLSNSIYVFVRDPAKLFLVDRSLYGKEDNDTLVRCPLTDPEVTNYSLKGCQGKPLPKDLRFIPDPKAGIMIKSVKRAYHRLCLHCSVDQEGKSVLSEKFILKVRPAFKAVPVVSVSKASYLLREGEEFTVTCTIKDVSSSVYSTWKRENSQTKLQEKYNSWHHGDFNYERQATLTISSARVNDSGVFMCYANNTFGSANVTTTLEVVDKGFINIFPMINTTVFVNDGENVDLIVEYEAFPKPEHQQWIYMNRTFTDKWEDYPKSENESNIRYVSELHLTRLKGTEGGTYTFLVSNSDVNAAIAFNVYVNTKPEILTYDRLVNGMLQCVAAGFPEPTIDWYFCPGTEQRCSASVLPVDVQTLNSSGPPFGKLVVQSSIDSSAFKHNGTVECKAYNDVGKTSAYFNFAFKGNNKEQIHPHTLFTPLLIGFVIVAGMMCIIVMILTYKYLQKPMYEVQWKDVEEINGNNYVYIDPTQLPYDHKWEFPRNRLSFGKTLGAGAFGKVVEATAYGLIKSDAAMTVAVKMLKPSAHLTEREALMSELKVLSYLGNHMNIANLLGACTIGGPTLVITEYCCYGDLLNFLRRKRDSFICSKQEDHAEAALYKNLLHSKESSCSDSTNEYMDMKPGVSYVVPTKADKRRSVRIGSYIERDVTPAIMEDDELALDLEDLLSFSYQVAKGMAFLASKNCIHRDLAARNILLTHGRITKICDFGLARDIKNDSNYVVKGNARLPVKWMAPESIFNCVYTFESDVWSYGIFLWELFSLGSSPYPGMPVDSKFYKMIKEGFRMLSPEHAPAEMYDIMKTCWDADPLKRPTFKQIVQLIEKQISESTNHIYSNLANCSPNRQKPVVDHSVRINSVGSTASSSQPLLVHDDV
Assay: biochemical
Type: binding
Settings: kinase KIT(V559D,V654A); 1 µM; read-out: % of control at 1 µM
remaining activity at 1 µM: recorded values
Please reply with the bare figure in % and do not write the unit itself.

Solved cases (3 shown):
Nc1cc(C(F)(F)F)c(-c2cc(N3CCOCC3)nc(N3CCOCC3)n2)cn1    100
Cn1c(=O)n(-c2ccc(C(C)(C)C#N)cc2)c2c3cc(-c4cnc5ccccc5c4)ccc3ncc21    84
COc1ncc(-c2ccc3nccc(-c4ccnnc4)c3c2)cc1NS(=O)(=O)c1ccc(F)cc1F    100

Continue with the next compound.
Challenge: Dear colleague, I am looking for the recorded remaining activity at 1 µM of the following compound: FC(F)c1nc2ccccc2n1-c1nc(N2CCOCC2)nc(N2CCOCC2)n1
Response given: 95

* * *

remaining activity at 1 µM values for the molecules below.
Target: panel of 442 kinases (Homo sapiens)
Construct: purchased Ambit Biosciences (scanMAXX KINOMEscan)
Assay: biochemical
Type: binding
Details: kinase HUNK; 1 µM; read-out: % of control at 1 µM
Answer in %, number only, no unit symbol.

Worked set:
Nc1cc(C(F)(F)F)c(-c2cc(N3CCOCC3)nc(N3CCOCC3)n2)cn1    100
FC(F)c1nc2ccccc2n1-c1nc(N2CCOCC2)nc(N2CCOCC2)n1    100
Cn1c(=O)n(-c2ccc(C(C)(C)C#N)cc2)c2c3cc(-c4cnc5ccccc5c4)ccc3ncc21    93

Consider the additional molecule presented here.
Challenge: Recorded remaining activity at 1 µM of COc1ncc(-c2ccc3nccc(-c4ccnnc4)c3c2)cc1NS(=O)(=O)c1ccc(F)cc1F , please.
Response given: 74

* * *

Biological target: panel of 442 kinases (Homo sapiens, UniProt Q13131)
Construct: purchased Ambit Biosciences (scanMAXX KINOMEscan)
Sequence (Q13131 whole entry): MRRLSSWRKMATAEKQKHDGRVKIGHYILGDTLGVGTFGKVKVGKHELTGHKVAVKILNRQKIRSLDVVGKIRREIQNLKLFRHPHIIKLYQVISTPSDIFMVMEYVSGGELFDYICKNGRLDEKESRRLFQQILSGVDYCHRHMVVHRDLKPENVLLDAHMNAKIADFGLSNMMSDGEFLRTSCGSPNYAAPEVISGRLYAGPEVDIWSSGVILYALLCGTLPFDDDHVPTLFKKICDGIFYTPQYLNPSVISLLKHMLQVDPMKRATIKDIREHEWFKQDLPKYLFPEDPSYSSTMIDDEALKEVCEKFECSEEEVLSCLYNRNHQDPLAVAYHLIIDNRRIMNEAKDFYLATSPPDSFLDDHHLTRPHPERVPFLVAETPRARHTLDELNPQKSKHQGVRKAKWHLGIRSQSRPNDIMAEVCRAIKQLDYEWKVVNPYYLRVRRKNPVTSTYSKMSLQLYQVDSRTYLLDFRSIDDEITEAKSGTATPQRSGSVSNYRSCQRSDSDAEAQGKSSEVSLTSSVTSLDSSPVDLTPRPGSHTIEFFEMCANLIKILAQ
Test: biochemical
Type: binding
Settings: AMPK-alpha1; 1 µM; read-out: % of control at 1 µM
assay.endpoint: remaining activity at 1 µM (%)
// units = %; emit number, no label

Consider the worked cases shown below.
COc1ncc(-c2ccc3nccc(-c4ccnnc4)c3c2)cc1NS(=O)(=O)c1ccc(F)cc1F    100
Nc1cc(C(F)(F)F)c(-c2cc(N3CCOCC3)nc(N3CCOCC3)n2)cn1    96
Cn1c(=O)n(-c2ccc(C(C)(C)C#N)cc2)c2c3cc(-c4cnc5ccccc5c4)ccc3ncc21    97

Challenge: Look at this compound and give its reported remaining activity at 1 µM. FC(F)c1nc2ccccc2n1-c1nc(N2CCOCC2)nc(N2CCOCC2)n1
Response given: 100

* * *

Target: panel of 442 kinases (Homo sapiens, UniProt Q13523)
Construct: purchased Ambit Biosciences (scanMAXX KINOMEscan)
Sequence (Q13523 whole entry): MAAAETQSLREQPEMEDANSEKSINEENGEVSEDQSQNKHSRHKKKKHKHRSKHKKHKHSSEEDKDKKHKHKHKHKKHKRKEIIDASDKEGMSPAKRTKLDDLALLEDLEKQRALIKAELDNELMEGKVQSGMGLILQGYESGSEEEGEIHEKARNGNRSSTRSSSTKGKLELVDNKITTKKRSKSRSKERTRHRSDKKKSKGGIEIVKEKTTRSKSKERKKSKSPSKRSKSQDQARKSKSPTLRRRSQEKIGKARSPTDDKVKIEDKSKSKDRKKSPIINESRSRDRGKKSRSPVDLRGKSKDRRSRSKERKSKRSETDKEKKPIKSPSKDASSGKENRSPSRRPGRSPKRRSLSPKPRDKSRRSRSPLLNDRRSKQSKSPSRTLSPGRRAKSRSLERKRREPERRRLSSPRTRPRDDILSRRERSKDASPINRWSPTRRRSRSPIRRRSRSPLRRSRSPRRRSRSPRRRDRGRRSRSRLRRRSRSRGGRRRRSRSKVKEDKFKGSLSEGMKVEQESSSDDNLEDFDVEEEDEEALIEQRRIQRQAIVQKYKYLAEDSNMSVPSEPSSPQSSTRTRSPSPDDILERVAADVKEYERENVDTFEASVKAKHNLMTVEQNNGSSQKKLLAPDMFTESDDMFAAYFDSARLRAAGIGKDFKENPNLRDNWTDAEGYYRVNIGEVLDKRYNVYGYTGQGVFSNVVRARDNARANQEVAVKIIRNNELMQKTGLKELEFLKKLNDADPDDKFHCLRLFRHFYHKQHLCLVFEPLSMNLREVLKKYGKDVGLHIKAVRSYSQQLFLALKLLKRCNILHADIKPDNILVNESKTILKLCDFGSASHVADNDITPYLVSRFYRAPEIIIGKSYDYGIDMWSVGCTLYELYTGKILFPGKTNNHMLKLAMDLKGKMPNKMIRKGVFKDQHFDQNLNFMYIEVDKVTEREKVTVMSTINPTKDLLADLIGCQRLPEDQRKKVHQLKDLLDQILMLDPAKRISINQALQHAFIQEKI
Assay: biochemical
Type: binding
Details: kinase PRP4; 1 µM; read-out: PRP4 (% of control at 1 µM)
assay.endpoint: remaining activity at 1 µM (%)
// return numeric value only (unit: %, not printed)

Some solved cases for reference:
Cn1c(=O)n(-c2ccc(C(C)(C)C#N)cc2)c2c3cc(-c4cnc5ccccc5c4)ccc3ncc21 [Dactolisib]    100
Nc1cc(C(F)(F)F)c(-c2cc(N3CCOCC3)nc(N3CCOCC3)n2)cn1 [Buparlisib]    100
COc1ncc(-c2ccc3nccc(-c4ccnnc4)c3c2)cc1NS(=O)(=O)c1ccc(F)cc1F [Omipalisib]    95

// switching to the query compound
Challenge: If you can, please state the reported remaining activity at 1 µM value of FC(F)c1nc2ccccc2n1-c1nc(N2CCOCC2)nc(N2CCOCC2)n1 [ZSTK474] .
Response given: 100

* * *

Reported remaining activity at 1 µM is given for each of the following molecules.
Target: panel of 442 kinases (Homo sapiens, UniProt P00519)
Construct: purchased Ambit Biosciences (scanMAXX KINOMEscan)
Sequence (P00519 whole entry): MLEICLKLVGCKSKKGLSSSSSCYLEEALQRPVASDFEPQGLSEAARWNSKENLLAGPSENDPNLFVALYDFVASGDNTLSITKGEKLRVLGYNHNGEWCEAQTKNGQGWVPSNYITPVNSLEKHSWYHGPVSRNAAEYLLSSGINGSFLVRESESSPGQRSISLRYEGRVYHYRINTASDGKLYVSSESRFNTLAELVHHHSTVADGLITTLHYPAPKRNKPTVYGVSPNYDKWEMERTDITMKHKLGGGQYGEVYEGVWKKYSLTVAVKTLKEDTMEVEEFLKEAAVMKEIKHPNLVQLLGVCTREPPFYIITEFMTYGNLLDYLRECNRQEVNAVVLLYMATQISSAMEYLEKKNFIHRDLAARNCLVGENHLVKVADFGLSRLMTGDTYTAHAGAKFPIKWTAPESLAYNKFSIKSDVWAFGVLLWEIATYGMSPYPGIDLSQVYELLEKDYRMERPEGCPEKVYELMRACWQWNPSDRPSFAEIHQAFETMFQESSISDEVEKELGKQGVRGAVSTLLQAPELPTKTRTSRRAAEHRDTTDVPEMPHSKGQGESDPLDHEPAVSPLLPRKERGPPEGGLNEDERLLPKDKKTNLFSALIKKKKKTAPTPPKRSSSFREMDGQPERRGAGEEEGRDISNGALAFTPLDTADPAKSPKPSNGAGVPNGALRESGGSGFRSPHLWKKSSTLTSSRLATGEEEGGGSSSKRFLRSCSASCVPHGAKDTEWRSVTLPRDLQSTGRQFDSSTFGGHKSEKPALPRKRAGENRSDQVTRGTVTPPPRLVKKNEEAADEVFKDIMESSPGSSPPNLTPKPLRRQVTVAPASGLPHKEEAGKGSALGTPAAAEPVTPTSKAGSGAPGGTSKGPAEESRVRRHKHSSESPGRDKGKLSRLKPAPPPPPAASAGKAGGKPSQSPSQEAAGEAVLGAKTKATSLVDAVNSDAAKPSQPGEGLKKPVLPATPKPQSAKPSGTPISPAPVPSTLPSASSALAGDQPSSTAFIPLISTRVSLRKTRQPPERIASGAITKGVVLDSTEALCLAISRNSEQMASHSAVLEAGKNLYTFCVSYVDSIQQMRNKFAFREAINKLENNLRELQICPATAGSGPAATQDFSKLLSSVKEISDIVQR
Assay: biochemical
Format: binding
Conditions: ABL1-phosphorylated; 1 µM; read-out: % of control at 1 µM
Please respond with the number in % and leave the unit unwritten.

These recorded examples may help you get a feel for the data.
Nc1cc(C(F)(F)F)c(-c2cc(N3CCOCC3)nc(N3CCOCC3)n2)cn1    86
FC(F)c1nc2ccccc2n1-c1nc(N2CCOCC2)nc(N2CCOCC2)n1    100
COc1ncc(-c2ccc3nccc(-c4ccnnc4)c3c2)cc1NS(=O)(=O)c1ccc(F)cc1F    98

Consider the record given below.
Challenge: Need remaining activity at 1 µM, item Cn1c(=O)n(-c2ccc(C(C)(C)C#N)cc2)c2c3cc(-c4cnc5ccccc5c4)ccc3ncc21
Response given: 81
